System: Escherichia coli
TEST_NAME: Antibacterial activity against Escherichia coli ATCC 25922 (CO-ADD:GN_001); MIC in CAMBH media using NBS plates, by Resazurin F(560/590)
Type: functional
EXPERIMENTAL_CONTEXT: Concentration 20 uM, ASSAY_TEST Inhibition of Bacterial Growth, detection method Resazurin, Fluorescence (ex560/em590), MEDIA CAMHB, plate type 384well, CORNING #3640, time 18 hr
READOUT_LABEL: Inhibition (%)
Unit % implied. Number only.

Q. Form field - read-out: Inhibition; system: Escherichia coli; submitted item: FC(F)(F)c1cccc(-c2nc3nc(Cl)c(Cl)nc3[nH]2)c1
A. 3.39

Q. Same read-out for CC(=O)O[C@H]1CC[C@@]2(C)[C@@H](CC[C@@H]3[C@@H]2CC(=O)[C@@]2(C)[C@H]3C[C@@H]3CC(C)=CC(=O)[C@@H]32)C1 ?
A. 14.73

Q. Same read-out for COc1ccc2nc(-c3ccc(Cl)cc3)cc(C(=O)O)c2c1 ?
A. 6.47

Q. Same read-out for CCN(CC)CCN1c2ccccc2Sc2ccc3ccccc3c21 ?
A. 11.87

Q. Same read-out for CCCOc1ccc(-c2nc(-c3ccc([N+](=O)[O-])cc3)cs2)cc1 ?
A. 3.67

Q. Same read-out for Cc1cc(=O)c2c(o1)C(=O)c1occc1C2=O ?
A. -16.26

Q. Same read-out for O=CN/C=C\c1cc(O)ccc1O ?
A. -8.61

Q. Same read-out for c1ccc(-c2nnc3nc(N4CCCCC4)nc(N4CCCCC4)n23)cc1 ?
A. 14.28

Q. Same read-out for NC(=O)Nc1ccc(Nc2ccccc2)cc1 ?
A. 5.39

Q. Same read-out for Nc1ccc(-c2nc3nc(N)nc(N)c3nc2-c2ccc(N)cc2)cc1 ?
A. -0.05

Q. Same read-out for COC1OCC(O)C(NC(=O)N(C)N=O)C1O (centres undefined) ?
A. -7.74

Q. Same read-out for Cc1nc(SCC(=O)O)n[nH]1 [TIAZOTIC ACID] ?
A. 7.99

Q. Same read-out for Nc1nc(N)c(/N=N/c2ccc(C(=O)O)cc2)c(N)n1 ?
A. 9.92

Q. Same read-out for Cc1cccc(N=C(S)Nc2cccc(C)n2)n1 ?
A. 3.58

----------
Test system: Candida albicans
EXPERIMENTAL_CONTEXT: 20 µM
Description: Antifungal activity against Candida albicans ATCC 90028 (CO-ADD:FG_001); MIC in YNB media using NBS plates, by OD630
Entries with a potency or affinity are not part of this list.
READOUT_LABEL: Inhibition (%)
Unit % implied. Number only.

Q. # input compound: Cc1nnsc1C(=O)NCc1c(F)cccc1Cl ; wanted: its Inhibition
A. -0.57

Q. Same read-out for CCOC(=O)c1nc(SC)n(C)c1C(=O)OCC ?
A. 0.39

Q. Same read-out for Nc1ccc(C(=O)C(=O)c2ccc(N)cc2)cc1 ?
A. 2.62

Q. Same read-out for CCN(CC)CCNC(=O)C(Cl)=C1C(Cl)=C(Cl)C(Cl)=C1Cl ?
A. 1.86

Q. Same read-out for O=C(O)C1OCC2(CO1)COC(C(=O)O)OC2 (stereo unspecified) ?
A. 1.43

Q. Same read-out for OCCN1CCSC1=S ?
A. 1.12

Q. Same read-out for O=C1CCC(NC(=O)c2ccccc2)C(=O)N1 (stereo unspecified) ?
A. 1.37

Q. Same read-out for CC(=O)CC[N+](C)(C)C.[I-] ?
A. 4.03

Q. Same read-out for O=C(OCC1CCC=CO1)C1CCC=CO1 (stereo unspecified) ?
A. 0.31

Q. Same read-out for CS(=O)(=O)O.Cc1cc2c(cc1[N+](=O)[O-])NC(CNC(C)C)CC2 (stereo unspecified) ?
A. -0.29

Q. Same read-out for O=C(CCl)NC1(C(=O)O)CCCC1 ?
A. 6.58

----------
Provide the recorded Inhibition for the entries that follow.
System: Cryptococcus neoformans
EXPERIMENTAL_CONTEXT: Concentration 20 uM; ASSAY_TEST Inhibition of Fungal Growth; detection method Resazurin; Absorption (OD600-OD570); plate type 384well; NBS; CORNING #3640
Description: Antifungal activity against Cryptococcus neoformans H99 ATCC 208821 (CO-ADD:FG_002); MIC in YNB media using NBS plates, by Resazurin OD(600-570)
Potency and affinity values are given separately.
Unit % implied. Number only.

Q. # input compound: Nc1nc(SCc2ccccn2)c2ncn(C3OC(CO)C(O)C3O)c2n1 (stereo not given) ; wanted: its Inhibition
A. -4.63

Q. Same read-out for CN(C)Cc1cc(C(F)(F)F)ccc1C(O)(c1ccccc1)c1ccccc1 ?
A. -9.44

Q. Same read-out for O=C(/C=C\c1ccc2ccccc2n1)c1cc(Cl)ccc1O ?
A. -1.96

Q. Same read-out for CC(C)(C(N)=O)c1ccccc1 ?
A. -2.3

Q. Same read-out for S=C(Sc1ccc(Cl)cc1)Sc1ccc(Cl)cc1 ?
A. -8.72

Q. Same read-out for Cc1cc(N(C)C)ccc1/N=N/c1ccc2ncccc2c1 ?
A. -12.5

Q. Same read-out for CCCCC(=O)N1CCCC(C)C1 (stereo not given) ?
A. -4.37

Q. Same read-out for Cc1cc(=O)n2nc(-c3ccc(C(C)(C)C)cc3)cc2[nH]1 ?
A. -5.87

Q. Same read-out for CNC1(C(N)=O)CCNCC1 ?
A. -6.49

Q. Same read-out for CC(C)n1cc(C#N)c(N)n1 ?
A. -6.7

Q. Same read-out for Cn1c(=O)c2nc(SCc3ccccn3)[nH]c2n(C)c1=S ?
A. -2.39

Q. Same read-out for CC(C)(C)N1CC(OC(N)=O)C1 ?
A. -9.34

Q. Same read-out for CN1CCN(C(=O)Nc2ccc([N+](=O)[O-])cc2)CC1 ?
A. -7.02

Q. Same read-out for CC1CC(C)(C)NC2(CCCC2)N1 (stereo not given) ?
A. -4.43

Q. Same read-out for O=[N+]([O-])c1cccnc1Oc1cc(Cl)c(Cl)cc1Cl ?
A. -4.41

Q. Same read-out for NC(=O)c1ccc(Oc2ccc(C(N)=O)cc2)cc1 ?
A. -7.62

Q. Same read-out for CCOC(=O)c1cnn2c(SC)ncnc12 ?
A. -8.81

Q. Same read-out for Cn1ncc2c(Nc3cccc(Cl)c3)nc(Nc3cccc(Cl)c3)nc21 ?
A. -11.25

Q. Same read-out for CC(C)(C)N=C(S)NC(C)(C)C ?
A. -0.12

Q. Same read-out for Oc1nc2[nH]c(Cl)nc(Cl)c-2n1 ?
A. -19.04

----------
Test system: Cryptococcus neoformans
EXPERIMENTAL_CONTEXT: Concentration 20 uM; ASSAY_TEST Inhibition of Fungal Growth; detection method Resazurin; Absorption (OD600-OD570); plate type 384well; NBS; CORNING #3640
Entries with a potency or affinity are not part of this list.
Provide the recorded Inhibition for the entries that follow.
Unit % implied. Number only.

Q. # input molecule: CCCCCCCCCCC(C(=O)O)C1(C(=O)O)CCC(=O)O1 (centres undefined) ; wanted: its Inhibition
A. -9.1

Q. Same read-out for COc1cccc(/C=C/c2nccc3ccccc23)c1OC ?
A. -13.37

Q. Same read-out for COc1cc2c(O)cc(C(=O)O)c(-c3cc(OC)c(OC)c(OC)c3)c2cc1OC ?
A. -9.59

Q. Same read-out for COc1cc(C2NC(=O)C(C#N)=C(Nc3cccc(C)c3)S2)ccc1O (centres undefined) ?
A. -8.18

----------
Tested on: Escherichia coli
TEST_NAME: Antibacterial activity against Escherichia coli ATCC 25922 (CO-ADD:GN_001); MIC in CAMBH media using NBS plates, by Resazurin F(560/590)
Type: functional
EXPERIMENTAL_CONTEXT: Concentration 20 uM, ASSAY_TEST Inhibition of Bacterial Growth, detection method Resazurin, Fluorescence (ex560/em590), MEDIA CAMHB, plate type 384well, CORNING #3640, time 18 hr
Provide the recorded Inhibition for the entries that follow.
Unit % implied. Number only.

Q. Form field - read-out: Inhibition; system: Escherichia coli; submitted item: O=C(O)CCc1cccnc1
A. 16.49

Q. Same read-out for CCc1nc(NC(C)(C)C)c2cnn(-c3ccccc3)c2n1 ?
A. 2.08

Q. Same read-out for CCS(=O)(=O)C1C(=O)N(C)C(S(=O)(=O)CC)C(=O)N1C (stereo not drawn) ?
A. 3.65

----------
Provide the recorded Inhibition for the entries that follow.
Test system: Acinetobacter baumannii
TEST_NAME: Antibacterial activity against Acinetobacter baumannii ATCC 19606 (CO-ADD:GN_034); MIC in CAMBH media using NBS plates, by Resazurin F(560/590)
Type: functional
EXPERIMENTAL_CONTEXT: Concentration 20 uM, ASSAY_TEST Inhibition of Bacterial Growth, detection method Resazurin, Fluorescence (ex560/em590), MEDIA CAMHB, plate type 384well, CORNING #3640, time 18 hr
Answer with the value and then the unit.

Q. # input compound: CN(c1cccnc1)c1[nH]cnc2nncc1-2 ; wanted: its Inhibition
A. -4.86%

Q. Same read-out for NS(=O)(=O)c1cc2c(cc1Cl)NC(CC1CCCC1)NS2(=O)=O (stereo unspecified) [CYCLOPENTHIAZIDE] ?
A. 8.9%

Q. Same read-out for COc1cc(NC(C)=O)c2ncccc2c1Br ?
A. -11.34%

Q. Same read-out for Nc1ccc(C(=O)Nc2cccc(N)c2)cc1 ?
A. -10.29%

Q. Same read-out for S=C(SCc1cc(Cl)cc2c1OCOC2)N1CCSCC1 ?
A. -7.54%

Q. Same read-out for N=C1OC(c2ccccc2)C(O)=C1O (stereo unspecified) ?
A. -10.5%

Q. Same read-out for CCOC(=O)C(C#N)C(=N)C1C(=O)OC2CCCCC21 (stereo unspecified) ?
A. -19.8%

Q. Same read-out for O=C1CCC(c2ccccc2)(c2ccccc2)CC1 ?
A. -6.38%

Q. Same read-out for CC(C)COc1nc2c(c(=O)n(C)c(=O)n2C)n1C ?
A. 11.63%

Q. Same read-out for COC1OCC(O)C(NC(=O)N(C)N=O)C1O (stereo unspecified) ?
A. 15.65%

Q. Same read-out for CCN(CC)CCNC(=O)C(Cl)=C1C(Cl)=C(Cl)C(Cl)=C1Cl ?
A. 6.92%

Q. Same read-out for CN1C(=C=Cc2cc(I)c(O)c(I)c2)C(C)(C)c2ccccc21 ?
A. 1.84%

Q. Same read-out for CN(C)CCCN1c2ccc3ccccc3c2Sc2cccc(Cl)c21 ?
A. 0.47%

Q. Same read-out for Cc1ccc(N2CCN(CC(O)COc3cccc(C)c3)CC2)cc1 (stereo unspecified) ?
A. -11.82%

Q. Same read-out for N#C/C(=C\c1ccc(C#N)cc1)C(=O)c1ccccc1 ?
A. -6.48%

Q. Same read-out for Clc1ccccc1/C=C/c1ccnc2ccccc12 ?
A. 3.17%

Q. Same read-out for CN1CCC(=C2c3ccccc3C(O)c3ccccc32)CC1 (stereo unspecified) ?
A. -19.91%

Q. Same read-out for c1ccc(-c2nnc(-c3ccccn3)[nH]2)nc1 ?
A. 11.56%

Q. Same read-out for CCOC(=O)CC1(C)NC(C(=O)O)C(C)(C)S1 (stereo unspecified) ?
A. 0.02%

Q. Same read-out for Cc1ccc(S(=O)(=O)N2CC=C(N)N2)cc1 ?
A. -10.87%

Q. Same read-out for CC(=O)O.COc1ccc2nccc(/C=C/c3ccnc4ccc(OC)cc34)c2c1 ?
A. -11.4%
